# ASSAY_NAME: physchem
MEASURED_METRIC: pKa

CC[C@H]1OC(=O)[C@H](C)[C@@H](O[C@H]2C[C@@](C)(OC)[C@@H](O)[C@H](C)O2)[C@H](C)[C@@H](O[C@@H]2O[C@H](C)C[C@H](N(C)C)[C@H]2O)[C@](C)(O)C[C@@H](C)/C(=N\OCOCCOC)[C@H](C)[C@@H](O)[C@]1(C)O	9.2

Now look at this one.
Could you please provide reported pKa for CC[C@H]1OC(=O)[C@H](C)[C@@H](O[C@H]2C[C@@](C)(OC)[C@@H](O)[C@H](C)O2)[C@H](C)[C@@H](O[C@@H]2O[C@H](C)C[C@H](N(C)C)[C@H]2O)[C@](C)(O)C[C@@H](C)C(=O)[C@H](C)[C@@H](O)[C@]1(C)O ? Thanks!
8.8
